Tested on: IGROV-1
Assay: NCI tumour cell line growth inhibition, 48 h
Calls of active or inactive are those of the source. No stated cut-off is given here; in the data, active = GI50 up to about 1.1 µM and inactive = higher.
Respond using exactly one of the listed classes: 1 = active, 0 = inactive

Example entries begin here.
>>> class_assignment("Cc1cc(C)c(S(=O)(=O)N2CCCN(S(=O)(=O)c3c(C)cc(C)cc3C)OCCCON(S(=O)(=O)c3c(C)cc(C)cc3C)CCCN(S(=O)(=O)c3c(C)cc(C)cc3C)OCCCO2)c(C)c1")
0
>>> class_assignment("Cn1c(COC(=O)Nc2ccccc2)c(COC(=O)Nc2ccccc2)c2ccc3cc(Cl)c(Cl)cc3c21")
0
>>> class_assignment("CO/C=C/C=C(\\C#N)C(=O)OC")
0
>>> class_assignment("COc1ccccc1NC(=O)C1=C(C)NC(C)=C(C(=O)Nc2ccccc2OC)C1c1ccco1")
0
>>> class_assignment("NS(=O)(=O)c1ccc(N=C2C(=O)Nc3ccccc32)cc1")
0

IN: Called result for O=C(CSc1nc2ccc(Cl)cc2c(=O)n1-c1ccccc1)N/N=C1\C(=O)Nc2ccc(F)cc21
OUT: 0

IN: So what was the verdict on CNC(=S)NNc1ncnc2c1c(-c1ccc(Cl)cc1)cn2-c1ccc(C)cc1 in this test?
OUT: 0

IN: What did this assay record as the result for CNC(=S)/C(=N\Nc1[nH]cnc1C(N)=O)C(N)=S ?
OUT: 0

IN: Query: recorded result category for Cc1ccc(NC(c2ccccc2)P(=O)(c2ccccc2)c2ccccc2)cc1 (centres undefined) in this test
OUT: 0

IN: So what was the verdict on CC(c1ccccc1)N1O[C@]12CC[C@@]1(C)C(CCCC13OCCO3)C2 (some centres undefined) in this test?
OUT: 0

IN: Can you look up the reported call for COC(=O)CCC(C)C1CCC2C3C(C[C@H](OC(C)=O)[C@]12C)[C@@]1(C)CCC2(C[C@H]1C[C@H]3OC(C)=O)OOC1(CC[C@]3(C)C4C[C@H](OC(C)=O)[C@]5(C)C(C(C)CCC(=O)OC)CCC5C4[C@H](OC(C)=O)C[C@@H]3C1)OO2 (some centres undefined) for me?
OUT: 0

IN: Name the outcome recorded for OCC1OC(n2nc(-c3ccccc3)nc2-c2cnccn2)C(O)C1O (centres undefined) in the assay.
OUT: 0

====

Tested on: NCI-H460
Assay: NCI tumour cell line growth inhibition, 48 h
Active and inactive are the calls of the source. No stated cut-off is given here; in the data, active = GI50 up to about 1.1 µM and inactive = higher.
RECORDED_ENDPOINT: GI50

>>> meas_value("O=c1c2ccccc2nc2n1NC(c1c(Cl)cccc1Cl)N2c1cccc(Cl)c1 (stereo unspecified)")
"5.13 µM (inactive)"

Look up GI50 for the entries below, preserving their order.
1. COc1ccc(CCc2cc(OC)cc(OC)c2)cc1
2. Cc1cc(C)c(C(=O)/C(=C/c2ccccc2)c2ccccc2)c(C)c1
3. O=C1C2C3C=C4c5ccccc5N(c5ccccc5)C4(C2C(=O)N1c1ccc(Br)cc1)[C@H]1C(=O)N(c2ccc(Br)cc2)C(=O)[C@@H]31 (stereo partly specified)
4. CCOC(=O)C1CCC(=O)N1C(=O)c1ccccc1 (stereo unspecified)
5. CCOC(=O)c1csc(NC(=O)CCCC#N)n1

OUT:
1. 22 µM (inactive)
2. 42.4 µM (inactive)
3. > 100 µM (inactive)
4. > 100 µM (inactive)
5. > 100 µM (inactive)

====

Test system: IGROV-1
Assay: NCI tumour cell line growth inhibition, 48 h
Calls of active or inactive are those of the source. No stated cut-off is given here; in the data, active = GI50 up to about 1.1 µM and inactive = higher.
RECORDED_ENDPOINT: GI50

>>> meas_value("COc1nc(N)nc2nc[nH]c12")
"239 µM (inactive)"
>>> meas_value("C/C=C/C(=O)N1C(=O)OC[C@@H]1c1ccccc1")
"19.4 µM (inactive)"
>>> meas_value("Cc1ccsc1C(=O)C(CC(=O)c1cccs1)c1ccsc1 (stereo not given)")
"> 100 µM (inactive)"
>>> meas_value("O=C1NC2(NC(=O)C1=O)Nc1ccccc1S2")
"> 92.7 µM (inactive)"
>>> meas_value("C=CCCC1CCCCNC1=S (stereo not given)")
"> 10 µM (inactive)"

Please look at the items below and tell me GI50 for each one, in order.
1. NC(=O)N/N=C(/Cc1nc2ccc(C(=O)c3ccccc3)cc2nc1O)C(=O)Nc1ccc(C(F)(F)F)cc1[N+](=O)[O-]
2. CN1CCc2c3n(c4cc(Br)ccc24)[C@H](O)CCCC31 (stereo not given in full)
3. CCCCOC(=O)NC(=O)c1cn(CCCOC(=O)NCCCCCCNC(=O)OCCCn2cc(C(=O)NC(=O)OCCCC)c(=O)[nH]c2=O)c(=O)[nH]c1=O
4. Cc1noc(C)c1/N=N/c1ccc2nonc2c1N
5. O=C(/C=C1\C[C@H]2C=Nc3ccccc3C(=O)N2C1)NCCCNC(=O)/C=C1\C[C@H]2C=Nc3ccccc3C(=O)N2C1

OUT:
["> 100 µM (inactive)", "> 7.11 µM (inactive)", "> 100 µM (inactive)", "> 100 µM (inactive)", "17.3 µM (inactive)"]
